test: Intrinsic clearance in human liver microsomes at 1 uM up to 30 mins by LC-MS/MS analysis; assay type: ADME; details: read-out: CLH
endpoint-label: microsomal CLint at 1 µM (µL/min/mg)
Report as a plain number; the unit µL/min/mg is understood.

Worked examples follow.
compound_smiles=Cn1ncc(C(=O)N2[C@@H]3CC[C@H]2C[C@@H](Nc2cc(=O)n(C)c4ncccc24)C3)c1Cl unit_annotation=µL/min/mg result_value=37
compound_smiles=Cc1onc(C(=O)N2[C@@H]3CC[C@H]2C[C@@H](Nc2cc(=O)n(C)c4nccnc24)C3)c1C unit_annotation=µL/min/mg result_value=100
compound_smiles=Cc1onc(C(=O)N2[C@@H]3CC[C@H]2C[C@@H](Nc2cc(=O)n(C)c4cc(F)c(F)cc24)C3)c1C unit_annotation=µL/min/mg result_value=107

In: Supply measured microsomal CLint at 1 µM of Cn1ncc(C(=O)N2CCC(Nc3cc(=O)[nH]c4cc(F)c(F)cc34)CC2)c1Cl in your reply.
Out: 12.5

----------
target: Cytochrome P450 3A4 (Homo sapiens); assay: Inhibition of CYP3A4 (unknown origin); assay type: ADME
Sequence (P08684 whole entry): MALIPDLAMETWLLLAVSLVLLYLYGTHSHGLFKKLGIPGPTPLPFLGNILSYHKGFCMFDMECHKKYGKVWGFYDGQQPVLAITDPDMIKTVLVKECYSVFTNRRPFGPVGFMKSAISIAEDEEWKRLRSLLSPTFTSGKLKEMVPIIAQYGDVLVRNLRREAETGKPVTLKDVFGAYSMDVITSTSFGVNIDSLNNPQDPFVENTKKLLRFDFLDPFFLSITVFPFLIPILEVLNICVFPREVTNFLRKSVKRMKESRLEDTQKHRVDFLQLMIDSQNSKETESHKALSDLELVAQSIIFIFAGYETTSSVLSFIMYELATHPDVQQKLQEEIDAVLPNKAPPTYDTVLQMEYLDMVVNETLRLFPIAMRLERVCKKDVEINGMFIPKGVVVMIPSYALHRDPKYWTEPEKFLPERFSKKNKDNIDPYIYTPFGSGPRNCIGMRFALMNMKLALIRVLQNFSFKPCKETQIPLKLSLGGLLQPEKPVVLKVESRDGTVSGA
Parameter INH: see the listing below.

compound_smiles=Cc1onc(C(=O)N2[C@@H]3CC[C@H]2C[C@@H](Nc2cc(=O)n(C)c4nccnc24)C3)c1C endpoint_label=INH result_value="> 30 µM"
compound_smiles=Cn1ncc(C(=O)N2[C@@H]3CC[C@H]2C[C@@H](Nc2cc(=O)n(C)c4ncccc24)C3)c1Cl endpoint_label=INH result_value="> 30 µM"
compound_smiles=Cn1ncc(C(=O)N2CCC(Nc3cc(=O)n(C)c4ccccc34)CC2)c1Cl endpoint_label=INH result_value="> 30 µM"
compound_smiles=Cc1onc(C(=O)N2CCC(Nc3cc(=O)n(C)c4cc(F)c(F)cc34)CC2)c1C endpoint_label=INH result_value="> 30 µM"
compound_smiles=Cn1ncc(C(=O)N2[C@@H]3CC[C@H]2C[C@@H](Nc2n[nH]c4ccc(F)cc24)C3)c1Cl endpoint_label=INH result_value="> 30 µM"

In: Supply measured INH of Cn1ncc(C(=O)N2CCC(Nc3cc(=O)[nH]c4ccc(F)cc34)CC2)c1Cl in your reply.
Out: > 30 µM

In: Supply measured INH of Cn1ncc(C(=O)N2CCC(Nc3cc(=O)[nH]c4ccccc34)CC2)c1Cl in your reply.
Out: > 30 µM

In: Supply measured INH of Cc1onc(C(=O)N2[C@@H]3CC[C@H]2C[C@@H](Nc2cc(=O)n(C)c4cc(F)c(F)cc24)C3)c1C in your reply.
Out: > 30 µM

----------
test: Elimination half life in Wistar rat at 10 mg/kg, po; type: ADME, organism-based; design: dose 10 mg/kg, route oral; conditions: in vivo, read-out: beta t1/2 (converted)
endpoint-label: half-life (h)
Report as a plain number; the unit h is understood.

In: Supply measured half-life of Cn1ncc(C(=O)N2CCC(Nc3cc(=O)n(C)c4ccccc34)CC2)c1Cl in your reply.
Out: 1.3

In: Supply measured half-life of Cn1ncc(C(=O)N2CCC(Nc3cc(=O)[nH]c4cc(F)c(F)cc34)CC2)c1Cl in your reply.
Out: 1.1

----------
experiment: Solubility of the compound in 0.1 M phosphate buffer at pH 7.4 after 24 hrs by UV and MS analysis; format: physicochemical
endpoint-label: solubility at 24 h (µM)
Report as a plain number; the unit µM is understood.

compound_smiles=Cn1ncc(C(=O)N2[C@@H]3CC[C@H]2C[C@@H](Nc2cc(=O)n(C)c4ncccc24)C3)c1Cl unit_annotation=µM result_value=20
compound_smiles=Cc1onc(C(=O)N2CCC(Nc3cc(=O)n(C)c4cc(F)c(F)cc34)CC2)c1C unit_annotation=µM result_value=28
compound_smiles=Cc1onc(C(=O)N2[C@@H]3CC[C@H]2C[C@@H](Nc2cc(=O)n(C)c4nccnc24)C3)c1C unit_annotation=µM result_value=132
compound_smiles=Cn1ncc(C(=O)N2CCC(Nc3cc(=O)[nH]c4ccccc34)CC2)c1Cl unit_annotation=µM result_value=255

Now, please, on to the next molecule.
In: Supply measured solubility at 24 h of Cn1ncc(C(=O)N2CCC(Nc3cc(=O)[nH]c4cc(F)c(F)cc34)CC2)c1Cl in your reply.
Out: 26
